- MEASUREMENT NOTES: Determining the solubility (saturated solution in McIlvaine buffer pH 7.4, UV spectroscopy)
- Assay type: physicochemical
- TEST CONDITIONS: pH 7.4, aqueous buffer, thermodynamic from solid, shaken 2 hours, 0.75 mg solid in 0.75 ml
MEASUREMENT KIND: solubility at 2 h (µg/mL)

Solved cases below.
{"COMPOUND": "COc1c(C[S+](C)[O-])cc(C(C)(C)C)cc1NC(=O)c1cc2cccc(CN3CCN(C(=O)[C@@H]4CCCN4C)CC3)c2n1C (some centres unmarked)", "UNITS OF MEASURE": "µg/mL", "solubility at 2 h": 680}
{"COMPOUND": "COc1c(NC(=O)c2cc3cccc(CN4CCN(C(=O)[C@@H]5CCCN5C)CC4)c3n2C)cc(C(C)(C)C)cc1NS(=O)(=O)C1CC1", "UNITS OF MEASURE": "µg/mL", "solubility at 2 h": 12}
{"COMPOUND": "COc1c(CN2CCN(C(C)C)CC2)cc(C(C)(C)C)cc1NC(=O)c1cc2cccc(CN3CCN(C(=O)[C@@H]4CCCN4C)CC3)c2n1C", "UNITS OF MEASURE": "µg/mL", "solubility at 2 h": 880}

[a] CCNC(=O)c1cc(C(C)(C)C)cc(NC(=O)c2cc3cccc(CN4CCN(C(=O)[C@@H]5CCCN5C)CC4)c3n2C)c1OC
[b] COc1c(NC(=O)c2cc3cccc(CN4CCN(C(=O)[C@@H]5CCCN5C)CC4)c3n2C)cc(C(F)(F)C(F)(F)F)cc1NS(C)(=O)=O
Q: Hi team, can someone confirm which has the larger solubility at 2 h: a or b ? Thanks. State the label of the item chosen.
Ans: a
